Each entry below carries its reported log10 AUC.
EXPERIMENT NOTES: AUC in dog
Assay type: ADME, organism-based, Canis lupus familiaris
Design: concentration or dose not given beside the values
CONDITION DESCRIPTION: plasma
Recorded AUC (log10, µg·h/mL)

Example compounds with recorded log10 AUC:
- CNC(=O)[C@@H](c1ccc(F)cc1F)N1C(=O)[C@@H](C2Cc3ccccc3C2)NC(=O)[C@H]1CC(C)C: -1.09
- CC(C)C[C@@H]1C(=O)N[C@H](C2Cc3ccccc3C2)C(=O)N1[C@@H](C(=O)N1CCC1)c1ccc(F)cc1F: -0.15
- CC(C)C[C@@H]1C(=O)N[C@H](C2Cc3ccccc3C2)C(=O)N1[C@@H](C(=O)N(C)CCO)c1ccc(F)cc1F: -0.70

Input line: Please report the recorded log10 AUC for "CC(C)C[C@@H]1C(=O)N[C@H](C2Cc3ccccc3C2)C(=O)N1[C@@H](C(=O)NC(C)C)c1ccc(F)cc1F" .
Output line: -0.76
